TESTED_ON: T1, hBCMA (human BCMA) (Homo sapiens, UniProt Q02223)
T1 sequence (Q02223 1-184): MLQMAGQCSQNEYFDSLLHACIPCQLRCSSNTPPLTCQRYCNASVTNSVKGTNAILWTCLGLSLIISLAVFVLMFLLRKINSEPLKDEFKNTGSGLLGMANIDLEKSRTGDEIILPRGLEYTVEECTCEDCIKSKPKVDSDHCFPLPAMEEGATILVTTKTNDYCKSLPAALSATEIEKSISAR
ASSAY_NAME: Kinetics and affinity of hBCMA/human IgG interactions by SPR (Bio-Rad Proteon XPR36)
Format: binding
CONDITION_LABEL: huBCMA, 37° C.
PROPERTY_LABEL: kd (1/s) huBCMA @37° C. (s⁻¹)
The response must be a number in s⁻¹ with no trailing unit.

Q: Any idea what its kd (1/s) huBCMA @37° C. is? The molecule is L3.PY/L1.FF/H2.YQ: anti-BCMA antibody (antibody, V domains shown) VH: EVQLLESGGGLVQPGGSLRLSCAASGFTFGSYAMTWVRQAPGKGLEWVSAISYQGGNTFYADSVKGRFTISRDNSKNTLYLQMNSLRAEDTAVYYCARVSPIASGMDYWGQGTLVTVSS VL: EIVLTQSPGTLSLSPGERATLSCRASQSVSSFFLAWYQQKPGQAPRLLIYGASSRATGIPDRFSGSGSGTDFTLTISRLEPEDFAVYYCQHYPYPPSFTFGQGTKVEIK
A: 0.00152
